Experiment: Pharmacokinetic evaluation in beagle dog
Format: in vivo
Details: plasma, po, p.o. 15 mg/kg
endpoint: Tmax (h)
Use h as the unit, but write only the number.

Exercise: What value of measured Tmax is listed for CP(C)(=O)c1cc2c(Nc3ccc4scnc4c3)ccnc2cc1OC(F)(F)F [A24] ?
Solution: 3
